- assay explanation: Evaluation of solubility in organic solvents (visual observation of complete dissolution)
- Type: physicochemical
- measurement setup: toluene, 25° C.
- Procedure: [Evaluation of Solubility] The evaluation of the solubility of the synthesized compound was conducted by the following method. About 2-3 mg of the compound was precisely weighed, and each solvent was added to the compound such that a predetermined concentration of the solute (0.5 wt %, 0.3 wt %, 0.2 wt %, 0.1 wt %, 0.05 wt %, or 0.03 wt %) was reached. […]
Measured solubility (solute concentration completely dissolved), listed per entry for reference.
observation type: solubility (solute concentration completely dissolved)

chem smiles | experimental value
CCCCCCc1cc(-c2ccc(-c3c4c(c(-c5ccc(-c6cc(CCCCCC)c(C#N)c(CCCCCC)c6)s5)c5nsnc35)N=S=N4)s2)cc(CCCCCC)c1C#N | ≥ 0.3 wt %
FC(F)(F)c1cccc(-c2ccc(-c3c4c(c(-c5ccc(-c6cccc(C(F)(F)F)c6)s5)c5nsnc35)N=S=N4)s2)c1 | ≥ 0.03 wt %
CCCCCCc1cc(-c2ccc(-c3c4c(c(-c5ccc(-c6ccc(C(F)(F)F)c(CCCCCC)c6)s5)c5nsnc35)N=S=N4)s2)ccc1C(F)(F)F | ≥ 0.03 wt %
